# credit: ChEMBL document CHEMBL1154417

Method Description: Cytotoxicity against human IM9 cells
Format: cell-based, IM-9
Condition Description: read-out: CCIC50

Smiles Text	CC50
Cc1nc(COc2ccc(C[C@H](NC(=O)O[C@H]3CO[C@H]4OCC[C@H]43)[C@H](O)CN(CC(C)C)S(=O)(=O)c3ccc4c(c3)OCO4)cc2)cs1	> 25 µM

---

System: Human immunodeficiency virus 1
Method Description: Antiviral activity against HIV1 3B in human PBMC assessed as blockade of reverse transcriptase activity
Format: functional, organism-based
Condition Description: Human immunodeficiency virus 1, 3B
pEC50: −log10 of the molar value.
Assay Readout: pEC50

Molecule	Measurement Target	Assay Readout	Observed Measurement
Cc1nc(COc2ccc(C[C@H](NC(=O)O[C@H]3CO[C@H]4OCC[C@H]43)[C@H](O)CN(CC(C)C)S(=O)(=O)c3ccc4c(c3)OCO4)cc2)cs1 [BRECANAVIR]	Human immunodeficiency virus 1	pEC50	9.70

---

Listing of recorded pEC50 by entry.
Tested on: Human immunodeficiency virus 1
Method Description: Antiviral activity against HIV1 HXB2 in human MT4 cells assessed as inhibition of viral-induced viral cytopathic effect in presence of 10% fetal bovine serum and 40% human serum by MTS assay
Format: functional, organism-based
Condition Description: Human immunodeficiency virus 1, HXB2, MT4
pEC50: −log10 of the molar value.
Assay Readout: pEC50

Compound	Observed Measurement
CC(C)CN(C[C@@H](O)[C@H](Cc1ccccc1)NC(=O)O[C@H]1CO[C@H]2OCC[C@H]21)S(=O)(=O)c1ccc(N)cc1	7.66
Cc1nc(COc2ccc(C[C@H](NC(=O)O[C@H]3CO[C@H]4OCC[C@H]43)[C@H](O)CN(CC(C)C)S(=O)(=O)c3ccc4c(c3)OCO4)cc2)cs1 [BRECANAVIR]	8.42
CCC[C@@]1(CCc2ccccc2)CC(O)=C([C@H](CC)c2cccc(NS(=O)(=O)c3ccc(C(F)(F)F)cn3)c2)C(=O)O1	6.18

---

Method Description: Protein binding in human plasma
Type: ADME, cell-free
Condition Description: read-out: PPB (converted)

Smiles Text	fraction unbound
Cc1nc(COc2ccc(C[C@H](NC(=O)O[C@H]3CO[C@H]4OCC[C@H]43)[C@H](O)CN(CC(C)C)S(=O)(=O)c3ccc4c(c3)OCO4)cc2)cs1	0.02

---

Measurement Target: Protease (Human immunodeficiency virus 1, UniProt Q9YQ12)
Sequence (Q9YQ12 whole entry): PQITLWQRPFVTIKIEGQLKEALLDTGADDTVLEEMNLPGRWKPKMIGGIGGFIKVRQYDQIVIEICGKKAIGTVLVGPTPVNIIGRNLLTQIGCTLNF
Method Description: Inhibition of HIV1 protease by fluorescent peptide substrate based assay
Listing of recorded Ki by entry.
Assay Readout: Ki

Smiles Text	Measurement Target	Assay Readout	Observed Measurement
CCC[C@@]1(CCc2ccccc2)CC(O)=C([C@H](CC)c2cccc(NS(=O)(=O)c3ccc(C(F)(F)F)cn3)c2)C(=O)O1	Protease (Human immunodeficiency virus 1, UniProt Q9YQ12)	Ki	0.008 nM
CC(C)CN(C[C@@H](O)[C@H](Cc1ccccc1)NC(=O)O[C@H]1CCOC1)S(=O)(=O)c1ccc(N)cc1	Protease (Human immunodeficiency virus 1, UniProt Q9YQ12)	Ki	0.057 nM
